test system: NCI-H838; experiment: relative viability (nuclei count vs DMSO), 5 days (fraction); higher = more cells survive; details: first compound 0.1 µM
MEASURED ATTRIBUTE: relative viability

{"columns": ["COMPOUND", "MEASURED ATTRIBUTE", "QUANTITATIVE READOUT"],
 "data": [
  ["O=c1cc(N2CCOCC2)oc2c(-c3cccc4c3sc3ccccc34)cccc12 + Cc1nc(Nc2ncc(C(=O)Nc3c(C)cccc3Cl)s2)cc(N2CCN(CCO)CC2)n1 [Dasatinib] (partner 0.075 µM)", "relative viability", 0.319],
  ["O=c1cc(N2CCOCC2)oc2c(-c3cccc4c3sc3ccccc34)cccc12 + CC(C)C[C@H](NC(=O)[C@H](Cc1ccccc1)NC(=O)c1cnccn1)B(O)O [Bortezomib] (partner 0.002 µM)", "relative viability", 0.805],
  ["O=c1cc(N2CCOCC2)oc2c(-c3cccc4c3sc3ccccc34)cccc12 + Cc1cc(Nc2cc(N3CCN(C)CC3)nc(Sc3ccc(NC(=O)C4CC4)cc3)n2)n[nH]1 [Tozasertib] (partner 0.1 µM)", "relative viability", 0.27],
  ["CCN(CC)CCCCNc1ncc2cc(-c3cc(OC)cc(OC)c3)c(NC(=O)NC(C)(C)C)nc2n1 + Nc1nc2[nH]cc(CCc3ccc(C(=O)N[C@@H](CCC(=O)O)C(=O)O)cc3)c2c(=O)[nH]1 [Pemetrexed] (partner 0.2 µM)", "relative viability", 0.225]
]}

* * *

system: LXF-289; assay: relative viability (nuclei count vs DMSO), 5 days (fraction); higher = more cells survive; details: first compound 8 µM
The entries below come with measured relative viability values attached.

{"columns": ["MOLECULE", "relative viability"],
 "data": [
  ["O=c1cc(-c2cccc3c2Sc2ccccc2S3)oc(N2CCOCC2)c1 + Nc1ncn([C@H]2C[C@H](O)[C@@H](CO)O2)c(=O)n1 [Decitabine] (partner 2 µM)", 0.416],
  ["O=c1cc(-c2cccc3c2Sc2ccccc2S3)oc(N2CCOCC2)c1 + CC(C)C[C@H](NC(=O)[C@H](Cc1ccccc1)NC(=O)c1cnccn1)B(O)O [Bortezomib] (partner 0.002 µM)", 1.03],
  ["O=c1cc(-c2cccc3c2Sc2ccccc2S3)oc(N2CCOCC2)c1 + CC(=O)Nc1cccc(-n2c(=O)n(C3CC3)c(=O)c3c(Nc4ccc(I)cc4F)n(C)c(=O)c(C)c32)c1 [Trametinib] (partner 0.02 µM)", 0.692],
  ["O=c1cc(-c2cccc3c2Sc2ccccc2S3)oc(N2CCOCC2)c1 + CS(=O)(=O)CCNCc1ccc(-c2ccc3ncnc(Nc4ccc(OCc5cccc(F)c5)c(Cl)c4)c3c2)o1 [Lapatinib] (partner 2 µM)", 0.93],
  ["O=c1cc(-c2cccc3c2Sc2ccccc2S3)oc(N2CCOCC2)c1 + CC(=O)c1c(C)c2cnc(Nc3ccc(N4CCNCC4)cn3)nc2n(C2CCCC2)c1=O [Palbociclib] (partner 0.5 µM)", 0.642],
  ["O=c1cc(-c2cccc3c2Sc2ccccc2S3)oc(N2CCOCC2)c1 + CS(=O)(=O)N1CCN(Cc2cc3nc(-c4cccc5[nH]ncc45)nc(N4CCOCC4)c3s2)CC1 [Pictilisib] (partner 1 µM)", 0.849]
]}

* * *

test system: NCI-H2087; assay: relative viability (nuclei count vs DMSO), 5 days (fraction); higher = more cells survive; details: first compound 1 µM

{"columns": ["MOLECULE", "MEASUREMENT TARGET", "relative viability"],
 "data": [
  ["CCN(CC)CCCCNc1ncc2cc(-c3cc(OC)cc(OC)c3)c(NC(=O)NC(C)(C)C)nc2n1 + CS(=O)(=O)CCNCc1ccc(-c2ccc3ncnc(Nc4ccc(OCc5cccc(F)c5)c(Cl)c4)c3c2)o1 [Lapatinib] (partner 2 µM)", "NCI-H2087", 1.07],
  ["O=c1cc(N2CCOCC2)oc2c(-c3cccc4c3sc3ccccc34)cccc12 + C[C@]1(O)C[C@@H](c2nc(-c3ccc4ccc(-c5ccccc5)nc4c3)c3c(N)nccn32)C1 [Linsitinib] (partner 1 µM)", "NCI-H2087", 0.985],
  ["O=c1cc(N2CCOCC2)oc2c(-c3cccc4c3sc3ccccc34)cccc12 + CS(=O)(=O)N1CCN(Cc2cc3nc(-c4cccc5[nH]ncc45)nc(N4CCOCC4)c3s2)CC1 [Pictilisib] (partner 1 µM)", "NCI-H2087", 1],
  ["O=c1cc(N2CCOCC2)oc2c(-c3cccc4c3sc3ccccc34)cccc12 + Cc1cc(Nc2cc(N3CCN(C)CC3)nc(Sc3ccc(NC(=O)C4CC4)cc3)n2)n[nH]1 [Tozasertib] (partner 0.1 µM)", "NCI-H2087", 0.25],
  ["O=c1cc(N2CCOCC2)oc2c(-c3cccc4c3sc3ccccc34)cccc12 + Nc1nc2[nH]cc(CCc3ccc(C(=O)N[C@@H](CCC(=O)O)C(=O)O)cc3)c2c(=O)[nH]1 [Pemetrexed] (partner 0.2 µM)", "NCI-H2087", 0.651],
  ["O=c1cc(N2CCOCC2)oc2c(-c3cccc4c3sc3ccccc34)cccc12 + Nc1ncn([C@H]2C[C@H](O)[C@@H](CO)O2)c(=O)n1 [Decitabine] (partner 2 µM)", "NCI-H2087", 0.297]
]}

* * *

system: NCI-H2405; assay: relative viability (nuclei count vs DMSO), 5 days (fraction); higher = more cells survive; conditions: first compound 0.03162 µM
MEASURED ATTRIBUTE: relative viability

{"columns": ["MOLECULE", "MEASUREMENT TARGET", "QUANTITATIVE READOUT"],
 "data": [
  ["O=c1cc(N2CCOCC2)oc2c(-c3cccc4c3sc3ccccc34)cccc12 + CS(=O)(=O)N1CCN(Cc2cc3nc(-c4cccc5[nH]ncc45)nc(N4CCOCC4)c3s2)CC1 [Pictilisib] (partner 1 µM)", "NCI-H2405", 0.513],
  ["CCN(CC)CCCCNc1ncc2cc(-c3cc(OC)cc(OC)c3)c(NC(=O)NC(C)(C)C)nc2n1 + CC(=O)Nc1cccc(-n2c(=O)n(C3CC3)c(=O)c3c(Nc4ccc(I)cc4F)n(C)c(=O)c(C)c32)c1 [Trametinib] (partner 0.02 µM)", "NCI-H2405", 0.669]
]}

* * *

tested on: NCI-H358; assay: relative viability (nuclei count vs DMSO), 5 days (fraction); higher = more cells survive; details: first compound 2.53 µM
Readings of relative viability for the listed compounds

{"columns": ["COMPOUND", "MEASUREMENT TARGET", "relative viability"],
 "data": [
  ["COc1nc(C)cnc1NS(=O)(=O)c1cccnc1-c1ccc(-c2nnco2)cc1 [Zibotentan] + CS(=O)(=O)N1CCN(Cc2cc3nc(-c4cccc5[nH]ncc45)nc(N4CCOCC4)c3s2)CC1 [Pictilisib] (partner 1 µM)", "NCI-H358", 0.378],
  ["O=c1cc(-c2cccc3c2Sc2ccccc2S3)oc(N2CCOCC2)c1 + O=C(CCCCCCC(=O)Nc1ccccc1)NO [Vorinostat] (partner 1 µM)", "NCI-H358", 0.71],
  ["COc1nc(C)cnc1NS(=O)(=O)c1cccnc1-c1ccc(-c2nnco2)cc1 [Zibotentan] + N=C(N)NC(=N)NCCc1ccccc1 [Phenformin] (partner 250 µM)", "NCI-H358", 0.345],
  ["COc1nc(C)cnc1NS(=O)(=O)c1cccnc1-c1ccc(-c2nnco2)cc1 [Zibotentan] + CS(=O)(=O)CCNCc1ccc(-c2ccc3ncnc(Nc4ccc(OCc5cccc(F)c5)c(Cl)c4)c3c2)o1 [Lapatinib] (partner 2 µM)", "NCI-H358", 0.503],
  ["COc1nc(C)cnc1NS(=O)(=O)c1cccnc1-c1ccc(-c2nnco2)cc1 [Zibotentan] + COc1cc2c(Oc3ccc(NC(=O)C4(C(=O)Nc5ccc(F)cc5)CC4)cc3F)ccnc2cc1OCCCN1CCOCC1 [Foretinib] (partner 0.25 µM)", "NCI-H358", 0.57],
  ["COc1nc(C)cnc1NS(=O)(=O)c1cccnc1-c1ccc(-c2nnco2)cc1 [Zibotentan] + O=C(c1cc(Cc2n[nH]c(=O)c3ccccc23)ccc1F)N1CCN(C(=O)C2CC2)CC1 [Olaparib] (partner 8 µM)", "NCI-H358", 0.689],
  ["COc1nc(C)cnc1NS(=O)(=O)c1cccnc1-c1ccc(-c2nnco2)cc1 [Zibotentan] + Nc1ncn([C@H]2C[C@H](O)[C@@H](CO)O2)c(=O)n1 [Decitabine] (partner 2 µM)", "NCI-H358", 0.222]
]}

* * *

tested on: LC-2-ad; experiment: relative viability (nuclei count vs DMSO), 5 days (fraction); higher = more cells survive; conditions: first compound 0.8 µM
MEASURED ATTRIBUTE: relative viability

{"columns": ["MOLECULE", "QUANTITATIVE READOUT"],
 "data": [
  ["O=c1cc(-c2cccc3c2Sc2ccccc2S3)oc(N2CCOCC2)c1 + CC1(C)CCC(c2ccc(Cl)cc2)=C(CN2CCN(c3ccc(C(=O)NS(=O)(=O)c4ccc(N[C@H](CCN5CCOCC5)CSc5ccccc5)c(S(=O)(=O)C(F)(F)F)c4)cc3)CC2)C1 [Navitoclax] (partner 0.5 µM)", 0.375],
  ["COc1nc(C)cnc1NS(=O)(=O)c1cccnc1-c1ccc(-c2nnco2)cc1 [Zibotentan] + CS(=O)(=O)N1CCN(Cc2cc3nc(-c4cccc5[nH]ncc45)nc(N4CCOCC4)c3s2)CC1 [Pictilisib] (partner 1 µM)", 0.527],
  ["O=c1cc(-c2cccc3c2Sc2ccccc2S3)oc(N2CCOCC2)c1 + Nc1nc2[nH]cc(CCc3ccc(C(=O)N[C@@H](CCC(=O)O)C(=O)O)cc3)c2c(=O)[nH]1 [Pemetrexed] (partner 0.2 µM)", 0.285]
]}
